target: Arg-gingipain (Rgp); assay: SPR (Biacore T100); Rgp amine-coupled directly to CM5 chip; peptide as analyte at 25-1,600 nM
Reported Endpoint: pKd
Note: pKd values are expressed as the negative base-10 logarithm of concentration in M.

Please give the measured pKd for this binder: RRKRR [Rgp-binding peptide A (RRKRR)]
6.40
